The reported measurements were obtained from paper PMC6522510.

# System: CHRF288-11
# Set-up: species or system AML cell lines (8); Primary HTS, single concentration about 10 uM, Cell Titer Glo viability; log10 luminescence, per cent inhibition relative to cycloheximide control
# PARTICULARS: 72 h, relative to cycloheximide control, log10 luminescence; inhibitor
Structures can show the parent of a compound that is named as a salt.
Fulfilled means recorded CHRF288-11 %inh is 10% or above; Not fulfilled means it is below 10%.

Exam item: decide whether the reported CHRF288-11 %inh for COCCCC/C(=N\OCCN)c1ccc(C(F)(F)F)cc1 [SJ000287487-5, FLUVOXAMINE MALEATE] is at least 10%.
Not fulfilled

Do the same for `Nc1nc(-c2ccc3c(c2)C(=Cc2cc(Br)c(O)c(Br)c2)C(=O)N3)cs1` please
Fulfilled

Do the same for `Cn1cc(C2=C(n3ccc4ccccc43)C(=O)NC2=O)c2ccccc21` please
Fulfilled

Do the same for Cn1cc(C2=C(c3cccc(NCC(O)CO)c3)C(=O)NC2=O)c2cc(Cl)ccc21 (stereo not shown) please
Fulfilled

Do the same for `CNC(=O)c1cncc(/C=C/c2c(Cl)cccc2Cl)c1` please
Not fulfilled

Do the same for `COc1ccc(-c2nn3ncccc3c2-c2ccnc(Nc3ccc(Cl)c(C(F)(F)F)c3)n2)cc1` please
Not fulfilled

Do the same for `O=C(Nc1ccc(Oc2ccc3[nH]c(NC(=O)c4ccccc4)nc3c2)cc1)Nc1cc(C(F)(F)F)ccc1F` please
Not fulfilled

====

# Tested on: MOLM-13
# Design: species or system AML cell lines (8); Primary HTS, single concentration about 10 uM, Cell Titer Glo viability; log10 luminescence, per cent inhibition relative to cycloheximide control
# PARTICULARS: 72 h, relative to cycloheximide control, log10 luminescence; inhibitor
For each record, write down the corresponding MOLM-13 %inh.
Express the result in % but write the number alone.

What value of MOLM-13 %inh has been reported for the following molecule? O=C1NC(=NCCc2ccc(Br)cc2)S/C1=C\c1ccc2ncccc2c1 [SJ000580974-1]
0.9588

Do the same for COc1cc(N2CCN(C(C)C)CC2)ccc1Nc1nc(Nc2cccc(F)c2C(=O)O)c2cc[nH]c2n1 [SJ000573302-1, U24644/141/1] please
-2.196

Do the same for CN(c1ccc(NC(=O)NCCN2CCOCC2)cc1)c1ccnc(Nc2ccc(CS(C)(=O)=O)cc2)n1 [SJ000573175-1, U17983/92/2] please
82.21

Do the same for CN(C)C(=O)O[C@H]1CN[C@H](C#Cc2cc3ncnc(Nc4ccc(OCc5cccc(F)c5)c(Cl)c4)c3s2)C1 [SJ000573053-1, U20298/139/1 | U20747/39/1] please
-0.949

Do the same for CC1(OC(=O)C2CCCC2)C(=O)C=C2C=C(c3ccsc3)OC=C2C1=O (stereo not shown) [SJ000580213-1] please
3.751

Do the same for C[C@@H](CS(C)(=O)=O)Nc1ncc2cc(Oc3ccc(F)cc3F)c(=O)n(C)c2n1 [SJ000581059-2] please
1.811

Do the same for CCn1c(-c2nonc2N)nc2ccncc21 [SJ000573203-1, JS100940-045A1] please
0.1335

====

# System: CMK
# TEST_DETAILS: cells
# Design: species or system AML cell lines (8); Secondary HTS, 10-point dose-response in triplicate, Cell Titer Glo viability, four-parameter fit EC50
# PARTICULARS: Homo sapiens, CMK, 72 h, read-out: CMK
For each record, write down the corresponding pEC50.
To interpret pEC50, take it as minus log10 of a concentration measured in moles per litre.

Request: pEC50, test system CMK, entry Oc1cccc(-c2nc(N3CCOCC3)c3oc4ncccc4c3n2)c1 [SJ000574285, PIK 103]
5.49

Do the same for CCN1CCN(CC(=O)Nc2ccc(-c3cccc4c(=O)cc(N5CCOCC5)oc34)c3sc4ccccc4c23)CC1 [SJ000834141, KU-0060648] please
6.57

====

# Test system: MOLM-13
# Parameters: species or system AML cell lines (8); Primary HTS, single concentration about 10 uM, Cell Titer Glo viability; log10 luminescence, per cent inhibition relative to cycloheximide control
# PARTICULARS: 72 h, relative to cycloheximide control, log10 luminescence, inhibitor, MOLM-13 %inh, 10 µM
Square brackets hold non-standard residues; d marks the D form. Peptide text beside a SMILES is read from it. * marks the point of attachment. Sta = CC(C)C[C@H](N)[C@@H](O)CC(=O)O; Isovaleryl = CC(C)CC(=O)*
PROPERTY: MOLM-13 %inh (%)
Express the result in % but write the number alone.

Request: MOLM-13 %inh, test system MOLM-13, entry `CO[C@H]1/C=C/O[C@@]2(C)Oc3c(C)c(O)c4c(O)c(c(/C=N/N5CCN(C)CC5)c(O)c4c3C2=O)NC(=O)/C(C)=C\C=C\[C@H](C)[C@H](O)[C@@H](C)[C@@H](O)[C@@H](C)[C@H](OC(C)=O)[C@@H]1C`
4.02

Do the same for O=C(O[C@H]1C[C@H]2CC[C@@H](C1)[N+]21CCCC1)C(O)(c1ccccc1)c1ccccc1 [SJ000556733-1, TROSPIUM CHLORIDE] please
-2.987

Do the same for `C[C@]12C=CC(=O)C=C1CC[C@@H]1[C@@H]2C(=O)C[C@@]2(C)[C@H]1CC[C@]2(O)C(=O)CO` please
-1.419

Do the same for `NCCCC[C@H](N[C@@H](CCc1ccccc1)C(=O)O)C(=O)N1CCC[C@H]1C(=O)O` please
-1.932

Do the same for CC(C)CC(=O)N[C@H](C(=O)N[C@H](C(=O)N[C@@H](CC(C)C)[C@@H](O)CC(=O)N[C@@H](C)C(=O)N[C@@H](CC(C)C)[C@@H](O)CC(=O)O)C(C)C)C(C)C [SJ000287258-3, PEPSTATIN A] (Isovaleryl-VV[Sta]A[Sta]-OH) please
-0.1246

Do the same for COCCOC(=O)C1=C(C)NC(C)=C(C(=O)OC(C)C)C1c1cccc([N+](=O)[O-])c1 (centres unmarked) please
3.286

Do the same for C[C@H]1O[C@@H](O[C@H]2[C@@H](O)C[C@H](O[C@H]3[C@@H](O)C[C@H](O[C@H]4CC[C@@]5(C)[C@H](CC[C@@H]6[C@@H]5CC[C@]5(C)[C@@H](C7=CC(=O)OC7)CC[C@]65O)C4)O[C@@H]3C)O[C@@H]2C)C[C@H](O)[C@@H]1O [SJ000285233-4, DIGITOXIN] please
81.14

Do the same for Nc1nccc(-c2c(-c3ccc(F)cc3)ncn2C2CCNCC2)n1 [SJ000573168-1, JB-19127-269D | LD19161-244A1] please
64.89

====

For each record, write down the corresponding M07e %inh.
# Test system: M07e
# Parameters: species or system AML cell lines (8); Primary HTS, single concentration about 10 uM, Cell Titer Glo viability; log10 luminescence, per cent inhibition relative to cycloheximide control
# PARTICULARS: 72 h, relative to cycloheximide control, log10 luminescence, inhibitor, M07e %inh, 10 µM

What value of M07e %inh has been reported for the following molecule? O=[N+]([O-])c1ccc(Oc2ccc(Br)cc2)c(C(O)P(=O)(O)O)c1 (single isomer, unassigned) [SJ000312207-3, RWJ-60475]
1.458%

Do the same for C[C@]12CC[C@@H]3c4ccc(O)cc4C[C@@H](CCCCCCCCC[S+]([O-])CCCC(F)(F)C(F)(F)F)[C@H]3[C@@H]1CC[C@@H]2O (single isomer, unassigned) [SJ000288293-4] please
2.696%

Do the same for `CCCCC(=O)N(Cc1ccc(-c2ccccc2-c2nnn[nH]2)cc1)[C@H](C(=O)O)C(C)C` please
-3.413%

====

For each record, write down the corresponding MV4-11 %inh.
# Tested on: MV4-11
# Design: species or system AML cell lines (8); Primary HTS, single concentration about 10 uM, Cell Titer Glo viability; log10 luminescence, per cent inhibition relative to cycloheximide control
# PARTICULARS: 72 h, relative to cycloheximide control, log10 luminescence; inhibitor
Counter-ions that a name gives are not always drawn.
Express the result in % but write the number alone.

What value of MV4-11 %inh has been reported for the following compound? NS(=O)(=O)c1cc2c(cc1Cl)NC(C(Cl)Cl)NS2(=O)=O (stereo not drawn) [SJ000286143-4, TRICHLORMETHIAZIDE]
-3.026

Do the same for CNC(=O)c1cccc(C#Cc2cncnc2Nc2ccc(OCc3cccc(F)c3)c(Cl)c2)c1 [SJ000573135-1, U17545/42/1] please
0.5885

Do the same for CC(C)[C@@H](O)CC[C@@H](C)[C@H]1CC[C@H]2[C@@H]3CC=C4C[C@@H](O)CC[C@]4(C)[C@H]3CC[C@]12C [SJ000561051-1, 24(S)-HYDROXYCHOLESTEROL] please
-0.7822

Do the same for CCCCNC(=O)[C@@H]1Cc2ccccc2N1C(=O)[C@@H](N)CC [SJ000772394-1, BUTABINDIDE OXALATE] please
-1.569

Do the same for Fc1ccc(-c2nc3n(c2-c2ccncc2)CCS3)cc1 [SJ000573131-1, RJA-12113-255 | U519/32/1 | SKF 86002] please
-2.292

Do the same for CCc1nn2ncccc2c1-c1ccnc(NC2CC2)n1 [SJ000573100-1, U16767/17/1] please
0.7749

Do the same for CCn1c(-c2nonc2N)nc2c(N3CCCC3)nccc21 [SJ000573261-1, DW100508-128A1] please
6.029

Do the same for CCCCCC(=O)O[C@]1(C(C)=O)CC[C@H]2[C@@H]3CCC4=CC(=O)CC[C@]4(C)[C@H]3CC[C@@]21C [SJ000285789-3, HYDROXYPROGESTERONE CAPROATE] please
-1.131

Do the same for COc1cccc(F)c1C(=O)c1cnc(NC2CCN(S(C)(=O)=O)CC2)nc1N [SJ000581178-1] please
20.51

Do the same for COc1cccc(-n2ncc3c(N/N=C/c4ccc(F)cc4)ncnc32)c1 [SJ000573219-1, U18028/188/1] please
-2.52

Do the same for Cc1c[nH]c(/C=C2\C(=O)Nc3ccccc32)c1CCC(=O)O [SJ000773151-1, SU 5402 |] please
45.76

Do the same for O=C1NC(=NCCc2cccs2)S/C1=C\c1ccc2ncccc2c1 [SJ000581015-1] please
1.469

Do the same for COc1cc(C=NNc2ncnc3c2cnn3Cc2ccccc2)ccc1O [SJ000573058-1, T237/25/8] please
-3.195

Do the same for CN1C[C@@H]2Cn3c(c(C4=C(c5cn(C)c6ccccc56)C(=O)NC4=O)c4ccccc43)C[C@H]2C1 [SJ000581133-2] please
12.86

Do the same for O=C1[C@H](CC[C@H](O)c2ccc(F)cc2)[C@@H](c2ccc(O)cc2)N1c1ccc(F)cc1 [SJ000286078-3, EZETIMIBE] please
0.198
